Data origin: PubChem BioAssay AID1745844

- Test system: rodent lifetime carcinogenesis bioassay, tumor incidence TD50
- protocolDescription: carcinogenic potency in animals, long-term in vivo studies, CPDB compilation (AID 1745844)
- assayConditions: rat; strain Fischer 344; females; in feed; site: liver; lesion: hepatocellular adenoma + hepatocellular carcinoma; dosed 103 weeks; study length 104 weeks
measuredQuantity: TD50

Noted TD50 for Nc1c(Br)cc(Br)c2c1C(=O)c1ccccc1C2=O , tested on rodent lifetime carcinogenesis bioassay, tumor incidence TD50: 40.1 mg/kg/day

----------
- Tested on: rodent lifetime carcinogenesis bioassay, tumor incidence TD50
- protocolDescription: carcinogenic potency in animals, long-term in vivo studies, CPDB compilation (AID 1745844)
- assayConditions: rat; strain Sprague-Dawley; males; in drinking water; site: gastrointestinal tract; lesion: several types; types named in the paper; dosed 162 weeks; study length 167 weeks
measuredQuantity: TD50

The molecule identified as O=NN(CCO)CCO registered its TD50 at 143 mg/kg/day
